B1: tRNA (parent)
chain: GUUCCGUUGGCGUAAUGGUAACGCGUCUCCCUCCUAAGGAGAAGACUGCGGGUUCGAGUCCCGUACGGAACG

# Variants of: B1
# Measurement description: yeast fitness relative to wild type (ratio to wild type); higher = fitter; tRNA-Arg(CCU), competitive growth, 37 C, YPD
Variants at the floor of the assay were thinned out.
Quick rule for you: yeast fitness at 0.7 or higher means satisfied, lower means not satisfied.

Mutation list: C11G A15G U26A U32A G38A A40C G52A
Assigned category: not satisfied
--
Mutation list: A37G A40G
Assigned category: satisfied
--
Mutation list: G12A G50U
Assigned category: satisfied
--
Mutation list: U28G C29A G52C A57U
Assigned category: not satisfied
--
Mutation list: G23A A36C
Assigned category: not satisfied

Is reported yeast fitness greater than or equal to 0.7 here: A40U A42G C55A
not satisfied

Dear colleague, could you confirm whether U3A C24A G63A U64A has yeast fitness at or above 0.7?
not satisfied

Values compiled from the RNAGym collection of RNA variant scans (doi:10.1126/science.aae0568).
